Biological target: T1, Caspase-9 (UniProt P55211 1-416, limits assumed)
T1 sequence (looked up): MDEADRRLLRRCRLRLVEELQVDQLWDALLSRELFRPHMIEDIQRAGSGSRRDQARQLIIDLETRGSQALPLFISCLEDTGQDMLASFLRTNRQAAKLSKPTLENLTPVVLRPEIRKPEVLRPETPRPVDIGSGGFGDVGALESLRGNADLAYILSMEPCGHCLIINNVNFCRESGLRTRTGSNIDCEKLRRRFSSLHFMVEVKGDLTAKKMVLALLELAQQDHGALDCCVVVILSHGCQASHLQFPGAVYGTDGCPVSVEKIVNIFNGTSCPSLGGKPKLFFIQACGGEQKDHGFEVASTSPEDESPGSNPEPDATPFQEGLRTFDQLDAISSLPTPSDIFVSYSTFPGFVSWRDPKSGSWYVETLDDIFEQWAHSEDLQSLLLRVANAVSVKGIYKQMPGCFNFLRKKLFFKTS
Test: cell-based or functional assay
Numbered stars: 1 amine (or outer) side, 2 acyl side, 3 side chain; on linkers, the order of the positions; unused ones are H or OH. Square brackets hold non-standard residues; d marks the D form. * marks the point of attachment. CH═CH‑CON(CH2Ph)2 = O=C(/C=C/*)N(Cc1ccccc1)Cc1ccccc1; CH═CH‑CON(CH3)CH2CH2Ph = CN(CCc1ccccc1)C(=O)/C=C/*; AAsp = aza-Asp, O=C(N(CC(=O)[*:3])N[*:1])[*:2]; Cbz = O=C(OCc1ccccc1)*
Returns: string. Value is 1 (yes) if measured k2 is below 1000 M⁻¹ s⁻¹, and 0 (no) if it is greater than or equal to it.

Example results:
binder="Cbz-Val-[AAsp]-{CH═CH‑Cl} (also: cis isomer) [Cbz-Val-AAsp-CH═CH-Cl]" class_assignment="1 (yes)"
binder="Cbz-DEV[AAsp]-{CH═CH‑CONHCH2‑4‑F‑Ph} [Cbz-Asp-Glu-Val-AAsp-CH═CH-CONHCH2-4-F-Ph]" class_assignment="1 (yes)"
binder="Cbz-LET[AAsp]-{CH═CH‑CO‑tetrahydroquinoline} [Cbz-Leu-Glu-Thr-AAsp-CH═CH-CON-tetrahydroquinoline]" class_assignment="0 (no)"
binder="Cbz-LET[AAsp]-{CH═CH‑CONHCH2Ph} [Cbz-Leu-Glu-Thr-AAsp-CH═CH-CONHCH2Ph]" class_assignment="0 (no)"

Identify whether the binder Cbz-LET[AAsp]-{CH═CH‑CONHCH2CH2Ph} [Cbz-Leu-Glu-Thr-AAsp-CH═CH-CONHCH2CH2Ph] records k2 below 1000 M⁻¹ s⁻¹.
0 (no)

Cbz-DEV[AAsp]-{CH═CH‑CON(CH2Ph)2} (SMILES CC(C)[C@H](NC(=O)[C@H](CCC(=O)O)NC(=O)[C@H](CC(=O)O)NC(=O)OCc1ccccc1)C(=O)NN(CC(=O)O)C(=O)/C=C/C(=O)N(Cc1ccccc1)Cc1ccccc1) [Cbz-Asp-Glu-Val-AAsp-CH═CH-CON(CH2Ph)2] , same question.
1 (yes)

Same question for Cbz-Val-[AAsp]-{CH═CH‑CONHCH2Ph} [Cbz-Val-AAsp-CH═CH-CONHCH2Ph] please.
1 (yes)

Try the binder Cbz-LET[AAsp]-{CH═CH‑CONHPh} [Cbz-Leu-Glu-Thr-AAsp-CH═CH-CONHPh]
0 (no)

Also Cbz-LET[AAsp]-{CH═CH‑CON(CH3)CH2CH2Ph} (SMILES CC(C)C[C@H](NC(=O)OCc1ccccc1)C(=O)N[C@@H](CCC(=O)O)C(=O)N[C@H](C(=O)NN(CC(=O)O)C(=O)/C=C/C(=O)N(C)CCc1ccccc1)[C@@H](C)O) [Cbz-Leu-Glu-Thr-AAsp-CH═CH-CON(CH3)CH2CH2Ph] , if possible.
1 (yes)

Cited source for all entries: patent US20050256058A1
